Recorded IC50, one value per entry.
tested on: MDA-MB-231; experiment: Cytotoxicity against human MDA-MB-231 cells after 72 hrs by MTT assay; assay type: functional, cell-based; details: MDA-MB-231, 72 h
Respond numerically; units are µM and should not be typed.

Fill blank: measured IC50 of the compound CC1=NOC(=O)/C1=C/c1c(COCc2ccc(C(F)(F)F)cc2)n(C)c2ccc(F)cc12 is ____.
8.23

Another compound to look at: Cn1c(COCc2ccc(C(F)(F)F)cc2)c(/C=C2/C(=O)ON=C2C(F)(F)F)c2cc(F)ccc21
5.03

Another compound to look at: Nc1ccn([C@@H]2O[C@H](CO)[C@@H](O)C2(F)F)c(=O)n1
0.65
